System: U2OS
Assay: Multiplex assay against U2OS
Type: toxicity, cell-based
Conditions: human, 12 h, 10 µM, compound concentration 10 uM, replicate 1

compound	endpoint_unit	Population Fragmented Nuclei (%)
CCCN1CCC[C@@H]2Cc3n[nH]cc3C[C@H]21.Cl [QUINPIROLE HYDROCHLORIDE]	%	19
COc1cc(NC(=O)CCN2CCC(OC(=O)Nc3ccccc3-c3ccccc3)CC2)c(Cl)cc1CNC[C@H](O)c1ccc(O)c2[nH]c(=O)ccc12 [BATEFENTEROL]	%	37
O=C(O)Cc1ccccc1Nc1c(Cl)cccc1Cl [DICLOFENAC]	%	20
Cc1ccc(/C(=C\CN2CCCC2)c2ccccn2)cc1 [TRIPROLIDINE]	%	25
Cc1ccc(-c2ccc(F)cc2COc2ccc(CCC(=O)O)cc2)cc1	%	31
CCCn1c(=O)c2[nH]c(C3CCCC3)nc2n(CCC)c1=O	%	30
C[C@H]1[C@H]2CC[C@H]3[C@@H]4CC=C5C[C@@H](N(C)C)CC[C@]5(C)[C@H]4CC[C@]23CN1C [CONESSINE]	%	19
O=C(NCC(=O)N1CC[C@H](N[C@H]2CC[C@@](O)(c3ccc(-c4ncccn4)cn3)CC2)C1)c1cccc(C(F)(F)F)c1 [PF-4136309]	%	25
CC1(COc2ccc3c(c2)ncn3-c2ccc3cccc(N4CCC(N)CC4)c3n2)COC1 [CRENOLANIB]	%	43
O=C1COc2nccc(-c3ccccc3F)c2CN1Cc1cc(C(F)(F)F)cc(C(F)(F)F)c1	%	36
C[C@H](NC(=O)c1c(C(F)F)nn(C)c1Oc1cccc(C(F)(F)F)c1)c1ccc(C(=O)O)cc1 [PALUPIPRANT]	%	28
COc1c(C)cc(NC(=O)c2nn(Cc3ccc(F)cc3)c3c2CN(C(=O)c2ccc[nH]2)C[C@]3(C)C(N)=O)cc1C	%	26
CC(=O)NCCc1c(Cc2ccccc2)[nH]c2ccccc12 [LUZINDOLE]	%	26
CCOc1c2c(c(OCC)c3ncccc13)CN(c1ccc(CS(=O)(=O)NC(=O)Cc3ccccc3OC)cc1C)C2=O	%	30
c1cc(OCCCN2CCCCC2)ccc1CN1CCCCC1 [JNJ-5207852]	%	34
CCNC1(C(N)=O)CCN(c2ncnc3c2nc(-c2ccccc2Cl)n3-c2ccc(Cl)cc2)CC1 [OTENABANT]	%	31
N[C@@]1(C(=O)O)CO[C@H]2[C@H](C(=O)O)[C@H]21 [LY-379268]	%	30
CN1CCN2c3ncccc3Cc3ccccc3C2C1 (centres undefined) [MIRTAZAPINE]	%	19
O=C(NCCO)c1cccc(-c2cc(Nc3ccc(OC(F)(F)F)cc3)ncn2)c1	%	21
CN(C)c1ccnc2sc3c(=O)n(N4CCCCCC4)cnc3c12	%	30
COc1cc(C(=O)N(CCCc2ccccc2)Cc2ccc(CC(=O)O)cc2)cc(OC)c1C	%	22
Cc1ccc(F)cc1C(=O)Nc1ccc(C(=O)N2Cc3cccn3Cc3ccccc32)c(Cl)c1 [LIXIVAPTAN]	%	34
N#Cc1c(N)nc(SCc2csc(-c3ccc(Cl)cc3)n2)c(C#N)c1-c1ccc(OCCO)cc1 [CAPADENOSON]	%	35
Cc1ccc(C(C)(O)c2nc3ccccc3s2)c(C)c1 (centres undefined)	%	25
COc1ccc2c(c1)C(C(=O)N(Cc1ccc(N(C)C)cc1)c1ccc(C(C)C)cc1)CCC2.Cl (centres undefined)	%	27
CC[C@H]1OC(=O)[C@H](C)[C@@H](O[C@H]2C[C@@](C)(OC)[C@@H](O)[C@H](C)O2)[C@H](C)[C@@H](O[C@@H]2O[C@H](C)C[C@H](N(C)C)[C@H]2O)[C@@]2(C)CC(C)=C(O2)[C@H](C)[C@@H](O)[C@]1(C)O	%	34
Cc1ccccc1C(=O)Nc1ccc(C(=O)N2CCCC(N(C)C)c3ccccc32)cc1.Cl (centres undefined)	%	18
O=S(=O)(c1ccccc1)c1cnc2c(N3CCNCC3)cccc2c1 [INTEPIRDINE]	%	25
Oc1c(CN2CCN(c3ccccn3)CC2)cc(Cl)c2cccnc12	%	31
CSc1ccccc1N1CCN(CCCCCC(=O)NC2CCCc3ccccc32)CC1.Cl (centres undefined)	%	41
CN(C)CCCc1cc(C(=O)Nc2ccc(-c3ccncc3)cc2)ccc1O.Cl.Cl	%	28
O=C(O)c1cc2ccccc2c(Cc2c(O)c(C(=O)O)cc3ccccc23)c1O [PAMOIC ACID]	%	19
CNC[C@H](O)c1ccc(O)c(O)c1 [EPINEPHRINE]	%	41
C[C@@H]1C[C@H]2[C@@H]3CCC4=CC(=O)C=C[C@]4(C)[C@@]3(F)[C@@H](O)C[C@]2(C)[C@@]1(O)C(=O)CO [DEXAMETHASONE]	%	20

---

System: HEK-293T
Experiment: Multiplex assay against HEK293T
Type: toxicity, cell-based
Conditions: human, 24 h, 1 µM, compound concentration 1 uM, replicate 1
observation_type: Population Tubulin-Different-Phenotype (%)

molecule	measured
C[C@@H]1C[C@H]2[C@@H]3CCC4=CC(=O)C=C[C@]4(C)[C@@]3(F)[C@@H](O)C[C@]2(C)[C@@]1(O)C(=O)CO [DEXAMETHASONE]	17%
CC(=O)NCCc1c(Cc2ccccc2)[nH]c2ccccc12 [LUZINDOLE]	26%
CCCN1CCC[C@@H]2Cc3n[nH]cc3C[C@H]21.Cl [QUINPIROLE HYDROCHLORIDE]	14%
COc1c(C)cc(NC(=O)c2nn(Cc3ccc(F)cc3)c3c2CN(C(=O)c2ccc[nH]2)C[C@]3(C)C(N)=O)cc1C	24%
Cc1nc2ccc(Oc3ccc(F)cc3)cc2c(=O)n1C[C@H]1CCCN(C(C)C)C1.Cl	27%
O=S(=O)(c1ccccc1)c1cnc2c(N3CCNCC3)cccc2c1 [INTEPIRDINE]	26%
CSc1ccccc1N1CCN(CCCCCC(=O)NC2CCCc3ccccc32)CC1.Cl (stereo not drawn)	41%
N#Cc1c(N)nc(SCc2csc(-c3ccc(Cl)cc3)n2)c(C#N)c1-c1ccc(OCCO)cc1 [CAPADENOSON]	34%

---

Test system: U2OS
Assay: Multiplex assay against U2OS
Type: toxicity, cell-based
Conditions: human, 48 h, 1 µM, compound concentration 1 uM, replicate 1
Each entry below carries its reported Population Fragmented Nuclei (%).

compound	endpoint_unit	Population Fragmented Nuclei (%)
c1cc(OCCCN2CCCCC2)ccc1CN1CCCCC1 [JNJ-5207852]	%	21
CN(C)c1ccnc2sc3c(=O)n(N4CCCCCC4)cnc3c12	%	17
COc1cc(NC(=O)CCN2CCC(OC(=O)Nc3ccccc3-c3ccccc3)CC2)c(Cl)cc1CNC[C@H](O)c1ccc(O)c2[nH]c(=O)ccc12 [BATEFENTEROL]	%	26
CN(C)CCCc1cc(C(=O)Nc2ccc(-c3ccncc3)cc2)ccc1O.Cl.Cl	%	25
O=C(NCCO)c1cccc(-c2cc(Nc3ccc(OC(F)(F)F)cc3)ncn2)c1	%	15
COc1cc(C(=O)N(CCCc2ccccc2)Cc2ccc(CC(=O)O)cc2)cc(OC)c1C	%	23
CCCn1c(=O)c2[nH]c(C3CCCC3)nc2n(CCC)c1=O	%	20
N[C@@]1(C(=O)O)CO[C@H]2[C@H](C(=O)O)[C@H]21 [LY-379268]	%	13
CCCC(CCC)C(=O)O [VALPROIC ACID]	%	20
C[C@@H]1C[C@H]2[C@@H]3CCC4=CC(=O)C=C[C@]4(C)[C@@]3(F)[C@@H](O)C[C@]2(C)[C@@]1(O)C(=O)CO [DEXAMETHASONE]	%	20
O=C(NCC(=O)N1CC[C@H](N[C@H]2CC[C@@](O)(c3ccc(-c4ncccn4)cn3)CC2)C1)c1cccc(C(F)(F)F)c1 [PF-4136309]	%	14
C[C@H]1[C@H]2CC[C@H]3[C@@H]4CC=C5C[C@@H](N(C)C)CC[C@]5(C)[C@H]4CC[C@]23CN1C [CONESSINE]	%	16
O=C(O)Cc1ccccc1Nc1c(Cl)cccc1Cl [DICLOFENAC]	%	17
Cc1ccccc1C(=O)Nc1ccc(C(=O)N2CCCC(N(C)C)c3ccccc32)cc1.Cl (stereo not given)	%	14
Cc1ccc(-c2ccc(F)cc2COc2ccc(CCC(=O)O)cc2)cc1	%	17

---

System: U2OS
Assay: Multiplex assay against U2OS
Format: toxicity, cell-based
Details: human, 48 h, 10 µM, compound concentration 10 uM, replicate 2
This section presents molecules with their documented Population Healthy Nuclei (%) values.

molecule	endpoint_unit	Population Healthy Nuclei (%)
N#Cc1c(N)nc(SCc2csc(-c3ccc(Cl)cc3)n2)c(C#N)c1-c1ccc(OCCO)cc1 [CAPADENOSON]	%	49
CCNC1(C(N)=O)CCN(c2ncnc3c2nc(-c2ccccc2Cl)n3-c2ccc(Cl)cc2)CC1 [OTENABANT]	%	45
CC1(COc2ccc3c(c2)ncn3-c2ccc3cccc(N4CCC(N)CC4)c3n2)COC1 [CRENOLANIB]	%	13
O=C(O)Cc1ccccc1Nc1c(Cl)cccc1Cl [DICLOFENAC]	%	75
COc1ccc2c(c1)C(C(=O)N(Cc1ccc(N(C)C)cc1)c1ccc(C(C)C)cc1)CCC2.Cl (centres undefined)	%	49
COc1cc(C(=O)N(CCCc2ccccc2)Cc2ccc(CC(=O)O)cc2)cc(OC)c1C	%	71
CC(C)(C)c1ccc(S(=O)(=O)Nc2ccc(Cl)cc2C(=O)c2cc[n+]([O-])cc2)cc1 [VERCIRNON]	%	65
CN1CCN(c2nc3cc(C(F)(F)F)ccc3n3cccc23)CC1.O=C(O)/C=C\C(=O)O.O=C(O)/C=C\C(=O)O	%	67
Cc1ccc(-c2ccc(F)cc2COc2ccc(CCC(=O)O)cc2)cc1	%	72

Cited source: ChEMBL document CHEMBL5058577
